# assay.target: wild type and amino acid substituted PPO enzyme (PPO2) of SEQ ID NO: 2 (AMARE)
measurement.kind: IC50 (nM)
Answer in nM, number only, no unit symbol.

Input: Sample C#CCN1C(=O)C(F)(F)Oc2cc(F)c(-n3c(=O)n(C)c(=S)n(C)c3=O)cc21 [1,5-dimethyl-6-thioxo-3-(2,2,7-trifluoro-3-oxo-4-(prop-2-yny] [reference compound] — what was its IC50?
Output: 246

* * *

# assay.target: wild type and amino acid substituted PPO enzyme (PPO2) of SEQ ID NO: 2 (AMARE) (Amaranthus tuberculatus, UniProt Q0NZW9, R128Y/F420M, form not given)
# Type: biochemical, Amaranthus tuberculatum
# IC50 values compiled below

In the examples that follow, each entry is paired with its recorded IC50.
{"compound": "CCOC(=O)C(C)OC(=O)c1cc(Oc2ccc(C(F)(F)F)cc2Cl)ccc1[N+](=O)[O-] (stereo not shown) [LACTOFEN]", "IC50": "143 nM"}
{"compound": "C=CCOC(=O)C(C)(C)OC(=O)c1cc(-n2c(=O)cc(C(F)(F)F)n(C)c2=O)ccc1Cl [BUTAFENACIL]", "IC50": "50.4 nM"}
{"compound": "CS(=O)(=O)NC(=O)c1cc(Oc2ccc(C(F)(F)F)cc2Cl)ccc1[N+](=O)[O-] [FOMESAFEN]", "IC50": "≥ 10000 nM"}

Continue with the next compound.
Input: Would you kindly share the measured IC50 for CCOC(=O)COc1ncccc1Oc1cc(-n2c(=O)cc(C(F)(F)F)n(C)c2=O)c(F)cc1Cl [A.13, reference compound] ?
Output: 89.2 nM
